Values from PubChem BioAssay AID1159580

// normalized growth lookup, one value per entry
test-summary: chemical genetic growth profiling, strain panel (AID 1159580);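 note: tested at 20 µM; growth read once vehicle control cultures reached saturation at 30 °C; 1 = growth at the plate median or of vehicle wells; lower values mean less growth of the strain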
run-parameters: S. cerevisiae deletion strains, growth OD, locus YAR019C, strain CDC15, stronger effect = lower value
Out of some 5,500 compounds screened, about 2,000 (36%) were called active. Another 18% or so got no clear call; they are omitted. The list shows a part of the results.
Please reply with the value in numeric form only.

May I ask what normalized growth has been recorded for NC(=NC(=O)c1ccc(Cl)cc1)c1cccs1 ?
0.944

What value of normalized growth has been reported for the following compound? COc1cc(Cl)c(NS(=O)(=O)c2cc(Br)c(Br)s2)c(OC)c1
0.96

Any idea what normalized growth was measured for COc1ccccc1NC(=O)Nc1nn(C)c2cccc(OC)c12 ?
0.917

State the recorded normalized growth for this entry: O=C(CCSc1cccs1)Nc1cccc(C(F)(F)F)c1
0.936

For the compound CCc1cc2c(cc1-c1csc(C/C(N)=N\O)n1)C(C)(C)CCC2(C)C , what normalized growth is on record?
0.985

Consider now this further compound.
// normalized growth lookup, key: O=S(=O)(Nc1cc(C(F)(F)F)ccc1F)c1cc(C(F)(F)F)ccc1Cl
0.942
